tested_system: Mrgpra1 (Mus musculus, UniProt Q91WW5)
Sequence (Q91WW5 whole entry): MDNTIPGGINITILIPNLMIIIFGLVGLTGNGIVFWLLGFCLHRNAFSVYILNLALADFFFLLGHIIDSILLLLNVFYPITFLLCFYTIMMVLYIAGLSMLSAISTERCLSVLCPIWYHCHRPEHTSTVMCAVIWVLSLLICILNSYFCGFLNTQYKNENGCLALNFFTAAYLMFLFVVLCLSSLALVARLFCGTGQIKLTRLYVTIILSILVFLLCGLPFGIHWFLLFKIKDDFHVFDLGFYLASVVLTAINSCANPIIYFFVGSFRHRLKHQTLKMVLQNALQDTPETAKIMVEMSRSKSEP
experiment_description: FLIPR calcium imaging, HEK293 expressing Mrgpra1
Assay type: cell-based
condition_parameters: SEM
Positions of bridges follow the written chain, without caps; N, C: chain ends. No end group written: not given here.
quantity_kind: EC50

chain_sequence | EC50
FLPKTLRKFFCRIRGGRCAVLNCLGKEEQIGRCSNSGRKCCRKKK (disulfide 11-40, 18-33, 23-41) [Defb14] | 620 nM

Pending sequence:
Dear colleague, I am looking for the recorded EC50 of the following sequence: KKINNPVSCLRKGGRCWNRCIGNTRQIGSCGVPFLKCCKRK (disulfide 9-37, 16-30, 20-38) [Defb3]
2700 nM
